- Test system: multidrug-resistant M. tuberculosis Peru isolate
- Test Details: microbe, parasite or virus in culture
- Assay type: cell-based
- Experimental Conditions: Mycobacterium tuberculosis, 336 h, read-out: MIC MDR-TB
Would you mind telling me the reported MIC of each entry?

Asked: Identify MIC associated with the compound CO[C@H]1/C=C/O[C@@]2(C)Oc3c(C)c(O)c4c(O)c(c(/C=N/N5CCN(C)CC5)c(O)c4c3C2=O)NC(=O)/C(C)=C\C=C\[C@H](C)[C@H](O)[C@@H](C)[C@@H](O)[C@@H](C)[C@H](OC(C)=O)[C@@H]1C [Rifampicin]
Given back: > 500 µg/mL

Asked: Note down MIC recorded for CN(Cc1cnc2nc(N)nc(N)c2n1)c1ccc(C(=O)N[C@@H](CCC(=O)O)C(=O)O)cc1 [Methotrexate, reference compound]
Given back: 250 µg/mL

Asked: State, in one line, measured MIC of O=[N+]([O-])c1cn2c(n1)OC[C@@H](OCc1ccc(OC(F)(F)F)cc1)C2 [Pretomanid]
Given back: 0.488 µg/mL

Asked: Answer with the recorded MIC for the compound listed here: NNC(=O)c1ccncc1 [Isoniazid, reference compound]
Given back: > 500 µg/mL

Asked: Provide one value: measured MIC of CC[C@@H](CO)NCCN[C@@H](CC)CO [Ethambutol]
Given back: 8 µg/mL
